target: YFV NS2B/NS3pro (Yellow fever virus)
test.summary: biochemical
measured.endpoint: Kd (µM)
Give bare numbers, in µM.

Ask: If you can, please state the reported Kd value of `Cc1cc2nc3c(=O)[nH]c(=O)nc-3n(C[C@H](O)[C@H](O)[C@H](O)CO)c2cc1C` .
Reply: 18.2

###

target: ZIKV NS2B/NS3pro (Zika virus)
test.summary: biochemical
assay.context: pIC50
measured.endpoint: IC50 (µM)
Numbers only, in µM.

Ask: For the record `Cc1cc2nc3c(=O)[nH]c(=O)nc-3n(C[C@H](O)[C@H](O)[C@H](O)CO)c2cc1C` , what value of IC50 is listed for ZIKV NS2B/NS3pro (Zika virus)?
Reply: 79.4

###

target: CHIKV nsP2pro (Chikungunya virus)
measured.endpoint: pKd
Answers are plain numbers, as −log10 of the molar value.

Ask: Recorded pKd for `Cc1cc2nc3c(=O)[nH]c(=O)nc-3n(C[C@H](O)[C@H](O)[C@H](O)CO)c2cc1C` , please?
Reply: 5.55

###

test.summary: in vitro
assay.context: Cercopithecus aethiops (African green monkey)
measured.endpoint: CC50 (µM)
One number for each entry, in µM.

Ask: Recorded CC50 of `Cc1cc2nc3c(=O)[nH]c(=O)nc-3n(C[C@H](O)[C@H](O)[C@H](O)CO)c2cc1C` , please.
Reply: 72.3

###

target: CHIKV nsP2pro (Chikungunya virus)
test.summary: biochemical
measured.endpoint: pIC50
Answers are plain numbers, as −log10 of the molar value.

Ask: For `Cc1cc2nc3c(=O)[nH]c(=O)nc-3n(C[C@H](O)[C@H](O)[C@H](O)CO)c2cc1C` , what is its reported pIC50?
Reply: 7.03

###

target: ZIKV NS2B/NS3pro (Zika virus)
test.summary: biochemical
assay.context: KD ± STD
measured.endpoint: Kd (µM)
Numbers only, in µM.

Ask: What value of Kd has been recorded for this entry: `Cc1cc2nc3c(=O)[nH]c(=O)nc-3n(C[C@H](O)[C@H](O)[C@H](O)CO)c2cc1C`
Reply: 25.1
